Measured pIC50, listed per entry for reference.
Biological target: PSMA (Homo sapiens)
Sequence (Q04609 whole entry): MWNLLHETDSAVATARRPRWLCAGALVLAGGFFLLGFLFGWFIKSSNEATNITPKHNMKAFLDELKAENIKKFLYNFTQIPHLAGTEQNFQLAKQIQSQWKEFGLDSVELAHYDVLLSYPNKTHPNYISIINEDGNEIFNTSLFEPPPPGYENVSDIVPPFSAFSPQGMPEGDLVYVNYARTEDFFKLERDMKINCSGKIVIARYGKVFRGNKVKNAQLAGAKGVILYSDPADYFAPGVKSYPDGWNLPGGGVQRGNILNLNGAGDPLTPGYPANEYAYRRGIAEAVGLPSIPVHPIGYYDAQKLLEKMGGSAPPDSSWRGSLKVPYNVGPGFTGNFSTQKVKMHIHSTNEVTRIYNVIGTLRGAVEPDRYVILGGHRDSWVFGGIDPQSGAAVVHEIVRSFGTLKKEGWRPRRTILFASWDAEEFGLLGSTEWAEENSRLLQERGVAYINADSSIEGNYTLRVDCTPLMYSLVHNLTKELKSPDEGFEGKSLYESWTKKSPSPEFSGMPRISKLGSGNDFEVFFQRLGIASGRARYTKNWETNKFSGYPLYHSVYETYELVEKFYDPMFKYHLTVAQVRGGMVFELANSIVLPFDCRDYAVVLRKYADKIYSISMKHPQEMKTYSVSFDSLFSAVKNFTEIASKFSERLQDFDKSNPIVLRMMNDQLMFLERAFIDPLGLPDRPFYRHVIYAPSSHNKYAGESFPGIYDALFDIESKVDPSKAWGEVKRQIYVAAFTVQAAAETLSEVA
Test: Measurement of binding capacity: competition with [^125I]30 on 22RV1 cells
Parameters: host or cells: 22RV1 human prostate cancer cells
Settings: 22RV1 cells, [^125I]30 0.1 nM, 37° C., 2 hours; read-out: IC50
pIC50: −log10 of the molar value.

MOLECULE	pIC50
O=C(O)CC[C@H](NC(=O)N[C@@H](CCCCN(CC(=O)O)C(=O)CCc1cn(CCOCCNC(=O)CN2CCN3CCN4CCN(CC2)CC(=O)[O][Ga]([O]C(=O)C3)[O]C(=O)C4)nn1)C(=O)O)C(=O)O	7.67
O=C(O)CCC(NC(=O)NC(CCCCN(CC(=O)O)C(=O)COCCOCCNC(=O)CN1CCN2CCN3CCN(CC1)CC(=O)[O][Ga]([O]C(=O)C2)[O]C(=O)C3)C(=O)O)C(=O)O (centres unmarked)	7.32
O=C(O)CC[C@H](NC(=O)N[C@@H](CCCCNC(=O)NCc1cn(CCOCCNC(=O)CN2CCN3CCN4CCN(CC2)CC(=O)[O][Ga]([O]C(=O)C3)[O]C(=O)C4)nn1)C(=O)O)C(=O)O	6.24
Cc1ccc(CCCC(=O)NCCCC[C@H](NC(=O)CN2CCN3CCN4CCN(CC2)CC(=O)[O][Ga]([O]C(=O)C3)[O]C(=O)C4)C(=O)NCCOCCOCC(=O)N(CCCC[C@H](NC(=O)N[C@@H](CCC(=O)O)C(=O)O)C(=O)O)CC(=O)O)cc1	7.74
O=C(O)CC[C@H](NC(=O)N[C@@H](CCCCN(CC(=O)O)C(=O)COCCOCCNC(=O)[C@H](CCCCNC(=O)CCCc1ccccc1)NC(=O)CN1CCN2CCN3CCN(CC1)CC(=O)[O][Ga]([O]C(=O)C2)[O]C(=O)C3)C(=O)O)C(=O)O	7.59

---

Measured intake of mouse organ: Bladder, listed per entry for reference.
System: PSMA^+ PC-3 PIP tumors
Assay: MicroPET/CT imaging of mice transplanted with prostate cancer cell lines
Format: in vivo, nude mouse
Conditions: 50 min after injection
Protocol: A tumor model was prepared by subcutaneously injecting PSMA^+ PC-3 PIP cells (a human prostate cancer cell line) to the right side of the nude mouse hind leg. […] The obtained PET/CT image results were quantitatively analyzed using Inveon™ Research Workplace (IRW). FIGS. 1, 2, 3, and 4 are graphs showing the quantitative analysis results of MicorPET/CT images for [^68Ga]1e, [^68Ga]1g, [^68Ga]1h, and [^68Ga]1k in % injected dose (ID)/g, and summarized in Tables 3, 4, 5, and 6, respectively.
RECORDED ENDPOINT: intake of mouse organ: Bladder (% ID/g)

COMPOUND	RECORDED NUMBER
Cc1ccc(CCCC(=O)NCCCCC(NC(=O)CN2CCN3CCN4CCN(CC2)CC(=O)[O][68Ga]([O]C(=O)C3)[O]C(=O)C4)C(=O)NCCOCCOCC(=O)N(CCCCC(NC(=O)NC(CCC(=O)O)C(=O)O)C(=O)O)CC(=O)O)cc1 (stereo not shown) [[^68Ga]1g]	22.76
O=C(O)CCC(NC(=O)NC(CCCCN(CC(=O)O)C(=O)COCCOCCNC(=O)C(CCCCNC(=O)CCCc1ccc(I)cc1)NC(=O)CN1CCN2CCN3CCN(CC1)CC(=O)[O][68Ga]([O]C(=O)C2)[O]C(=O)C3)C(=O)O)C(=O)O (stereo not shown) [[^68Ga]1h]	8.26
O=C(O)CCC(NC(=O)NC(CCCCN(CC(=O)O)C(=O)COCCNC(=O)C(CCCCNC(=O)CCCc1ccc(I)cc1)NC(=O)CN1CCN2CCN3CCN(CC1)CC(=O)[O][68Ga]([O]C(=O)C2)[O]C(=O)C3)C(=O)O)C(=O)O (stereo not shown) [[^68Ga]1k]	4.83
O=C(O)CCC(NC(=O)NC(CCCCN(CC(=O)O)C(=O)COCCOCCNC(=O)CN1CCN2CCN3CCN(CC1)CC(=O)[O][68Ga]([O]C(=O)C2)[O]C(=O)C3)C(=O)O)C(=O)O (stereo not shown) [[^68Ga]1e]	64.24

Data origin: patent US11931431B2
